Cited source: patent US5908851A

# system.name: 72 kDa gelatinase (Homo sapiens)
# setup.conditions: read-out: In vitro inhibitory activity IC50, Gelatinase A (MMP-2); 37° C., 16 hours; enzyme from RPMI-7951 cells
recorded.metric: IC50 (µM)
One number for each entry, in µM.

What does the data say about its IC50? Entry: `CC(C)(C)[C@H](NC(=O)[C@H](C/C=C/c1ccccc1)[C@H](O)C(=O)NO)C(=O)NC(c1ccccc1)c1ccccc1`
40

----------
Please provide measured IC50 for the entries that follow.
# system.name: stromelysin-1 (Homo sapiens)
# test.method.notes: biochemical
Answers are plain numbers, in nM.

The examples below pair each entry with its known result.
CC(C)C[C@@H](C(=O)N[C@H](C(=O)NC(c1ccccc1)c1ccc(F)cc1)C(C)(C)C)[C@H](O)C(=O)NO (stereo partly shown)
60
CC(C)C[C@@H](C(=O)N[C@H](C(=O)NC1c2ccccc2-c2ccccc21)C(C)(C)C)[C@H](O)C(=O)NO
200
C=CC[C@H](C(=O)NO)[C@@H](CCCCCCCC)C(=O)N[C@H](C(=O)NC(c1ccccc1)c1ccccc1)C(C)(C)C
60

Query compound follows.
Which IC50 reading was recorded for the compound `CO[C@H](C(=O)NO)[C@@H](CC(C)C)C(=O)N[C@H](C(=O)NC(c1ccccc1)c1ccccc1)C(C)(C)O` ?
20

----------
# system.name: stromelysin-1 (Homo sapiens)
# test.method.notes: biochemical
recorded.metric: log10(IC50) (log10 of the value in nM)
The common logarithm of IC50 in nM is what is listed.

Study these solved cases before continuing.
C=CC[C@H](C(=O)NO)[C@@H](CC(C)C)C(=O)N[C@H](C(=O)NC(c1ccccc1)c1ccccc1)C(C)(C)C
1.90
CC(C)C[C@@H](C(=O)N[C@H](C(=O)NC(c1ccccc1)c1ccc(Cl)cc1)C(C)(C)C)[C@H](O)C(=O)NO (stereo partly shown)
2.30
CC(C)C[C@@H](C(=O)N[C@H](C(=O)NC(c1ccccc1)c1ccccc1)C(C)(C)C)[C@H](O)C(=O)NO
1.70
CC(C)C[C@@H](C(=O)N[C@H](C(=O)NC(c1ccccc1)c1ccccc1F)C(C)(C)C)[C@H](O)C(=O)NO (stereo partly shown)
2.00
CC(C)C[C@@H](C(=O)N[C@H](C(=O)NC(c1ccccc1)c1ccccc1)C(C)(C)O)[C@H](O)C(=O)NO
2.30

Batch request: log10(IC50) per item, same order as input.
1. CC(C)C[C@@H](C(=O)N[C@H](C(=O)NC(c1ccccn1)c1ccccn1)C(C)(C)C)[C@H](O)C(=O)NO
2. CO[C@H](C(=O)O)[C@@H](CC(C)C)C(=O)N[C@H](C(=O)NC(c1ccccc1)c1ccccc1)C(C)(C)O

2.30
4.30

----------
# system.name: stromelysin-1 (Homo sapiens, UniProt P08254)
# Sequence (P08254 100-477, species assumed): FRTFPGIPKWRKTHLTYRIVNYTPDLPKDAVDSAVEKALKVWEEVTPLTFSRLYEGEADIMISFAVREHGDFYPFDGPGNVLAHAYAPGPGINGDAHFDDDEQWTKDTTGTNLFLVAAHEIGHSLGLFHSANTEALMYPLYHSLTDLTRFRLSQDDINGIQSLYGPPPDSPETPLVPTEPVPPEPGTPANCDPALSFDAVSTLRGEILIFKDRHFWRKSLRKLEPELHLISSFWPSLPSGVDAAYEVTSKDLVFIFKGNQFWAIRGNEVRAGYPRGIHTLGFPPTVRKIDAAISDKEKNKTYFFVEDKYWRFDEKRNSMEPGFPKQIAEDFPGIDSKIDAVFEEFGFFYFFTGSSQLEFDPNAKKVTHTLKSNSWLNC
# setup.conditions: read-out: In vitro inhibitory activity IC50, Stromelysin-1 (MMP-3); 37° C., 16 hours, pH 7.5
recorded.metric: pIC50
Numbers only, as −log10 of the molar value.

Find pIC50 (stromelysin-1 (Homo sapiens, UniProt P08254)) for the entry CC(C)(C)[C@H](NC(=O)[C@H](C/C=C/c1ccccc1)[C@H](O)C(=O)NO)C(=O)NC(c1ccccc1)c1ccccc1 [Example 9]
6.10

----------
# system.name: UniProt:P03956
# Sequence (P03956 100-469): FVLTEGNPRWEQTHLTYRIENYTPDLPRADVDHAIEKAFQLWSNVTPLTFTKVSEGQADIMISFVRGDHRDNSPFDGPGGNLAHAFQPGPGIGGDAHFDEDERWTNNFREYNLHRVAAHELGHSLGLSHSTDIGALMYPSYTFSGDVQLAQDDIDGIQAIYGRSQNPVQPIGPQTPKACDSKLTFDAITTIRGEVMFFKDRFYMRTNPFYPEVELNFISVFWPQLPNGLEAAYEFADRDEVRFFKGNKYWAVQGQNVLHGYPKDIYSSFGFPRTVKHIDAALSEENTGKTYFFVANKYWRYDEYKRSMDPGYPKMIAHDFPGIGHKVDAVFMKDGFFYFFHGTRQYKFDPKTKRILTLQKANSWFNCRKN
recorded.metric: IC50 (nM)
Answers are plain numbers, in nM.

C=CC[C@H](C(=O)NO)[C@@H](CCCCCCCC)C(=O)N[C@H](C(=O)NC(c1ccccc1)c1ccccc1)C(C)(C)C
30000
CC(C)(C)[C@H](NC(=O)[C@H](CCCc1ccccc1)[C@H](O)C(=O)NO)C(=O)NC(c1ccccc1)c1ccccc1
10000
CC(C)C[C@@H](C(=O)N[C@H](C(=O)NC(c1ccccc1)c1ccccc1)C(C)(C)C)[C@H](O)C(=O)NO
600
CC(C)C[C@@H](C(=O)N[C@H](C(=O)NC(c1ccccn1)c1ccccn1)C(C)(C)C)[C@H](O)C(=O)NO
300

API: value(readout=IC50, system=UniProt:P03956) for record `CC(C)C[C@@H](C(=O)N[C@H](C(=O)NC1c2ccccc2-c2ccccc21)C(C)(C)C)[C@H](O)C(=O)NO`
2000

----------
# system.name: 72 kDa gelatinase (Homo sapiens, UniProt P08253)
# test.method.notes: biochemical
recorded.metric: pIC50
Give bare numbers, as −log10 of the molar value.

C=CC[C@H](C(=O)NO)[C@@H](CCCCCCCC)C(=O)N[C@H](C(=O)NC(c1ccccc1)c1ccccc1)C(C)(C)C [Example 13]
4.70
C=CC[C@H](C(=O)NO)[C@@H](CC(C)C)C(=O)N[C@H](C(=O)NC(c1ccccc1)c1ccccc1)C(C)(C)C [Example 12]
4.40

Would you kindly look at the next entry?
Could you tell me which pIC50 is on file for CC(C)C[C@@H](C(=O)N[C@H](C(=O)NC(c1ccccn1)c1ccccn1)C(C)(C)C)[C@H](O)C(=O)NO [Example 11] ?
6.00

----------
# system.name: 72 kDa gelatinase (Homo sapiens)
# Sequence (P08253 110-660): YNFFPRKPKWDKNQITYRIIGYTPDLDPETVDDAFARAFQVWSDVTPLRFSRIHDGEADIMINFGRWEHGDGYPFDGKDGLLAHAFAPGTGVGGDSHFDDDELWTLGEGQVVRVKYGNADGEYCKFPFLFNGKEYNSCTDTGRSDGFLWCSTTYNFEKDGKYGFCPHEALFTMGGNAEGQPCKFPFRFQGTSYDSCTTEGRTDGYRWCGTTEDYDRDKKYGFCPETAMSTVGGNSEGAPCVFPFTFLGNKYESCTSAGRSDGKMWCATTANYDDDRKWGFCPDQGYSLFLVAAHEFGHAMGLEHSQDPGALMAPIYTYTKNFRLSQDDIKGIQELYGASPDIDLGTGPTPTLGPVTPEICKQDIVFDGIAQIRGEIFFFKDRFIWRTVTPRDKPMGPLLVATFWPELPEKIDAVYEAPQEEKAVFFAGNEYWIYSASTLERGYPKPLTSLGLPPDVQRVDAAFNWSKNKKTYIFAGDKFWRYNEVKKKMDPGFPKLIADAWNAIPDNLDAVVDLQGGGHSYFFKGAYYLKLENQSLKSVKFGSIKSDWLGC
# test.method.notes: biochemical
Kindly state pIC50 for each of the entries shown.
Answers are plain numbers, as −log10 of the molar value.

Here's what some known entries look like.
CC(C)C[C@@H](C(=O)N[C@H](C(=O)NC(c1ccccc1)c1ccc(Cl)cc1)C(C)(C)C)[C@H](O)C(=O)NO (stereo partly shown)
5.70
CC(C)C[C@@H](C(=O)N[C@H](C(=O)NC(c1ccccc1)c1ccc(F)cc1)C(C)(C)C)[C@H](O)C(=O)NO (stereo partly shown)
6.30
CC(C)C[C@@H](C(=O)N[C@H](C(=O)NC(c1ccccc1)c1ccccc1F)C(C)(C)C)[C@H](O)C(=O)NO (stereo partly shown)
6.22

Lab note: each compound below needs its pIC50 filled in.
1. CC(C)C[C@@H](C(=O)N[C@H](C(=O)NC(c1ccccc1)c1ccccc1)C(C)(C)O)[C@H](O)C(=O)NO
2. CO[C@H](C(=O)NO)[C@@H](CC(C)C)C(=O)N[C@H](C(=O)NC(c1ccccc1)c1ccccc1)C(C)(C)O
3. CC(C)C[C@@H](C(=O)N[C@H](C(=O)NC1c2ccccc2-c2ccccc21)C(C)(C)C)[C@H](O)C(=O)NO
4. CC(C)C[C@@H](C(=O)N[C@H](C(=O)NC(c1ccccc1)c1ccccc1)C(C)(C)C)[C@H](O)C(=O)NO

1: 6.22; 2: 6.00; 3: 4.77; 4: 5.52
